Measured viability at 500 molar ratio values are reported for all entries that follow.
experiment: Cytotoxicity against human Raji cells assessed as cell viability at 500 molar ratio; assay type: cell-based; details: read-out: Activity

Lab note: measured viability at 500 molar ratio of COC(=O)[C@H]1O[C@@H](O[C@H]2CC[C@]3(C)[C@H]4CC=C5[C@@H]6CC(C)(C)CC[C@]6(C(=O)O[C@@H]6O[C@H](CO)[C@@H](O)[C@H](O)[C@H]6O)CC[C@@]5(C)[C@]4(C)CC[C@H]3C2(C)C)[C@H](O)[C@@H](O[C@@H]2O[C@H](CO)[C@H](O)[C@H](O)[C@H]2O)[C@@H]1O was > 80%

Recorded result, CCCCOC(=O)[C@H]1O[C@@H](O[C@H]2CC[C@]3(C)[C@H]4CC=C5[C@@H]6CC(C)(C)CC[C@]6(C(=O)O[C@@H]6O[C@H](CO)[C@@H](O)[C@H](O)[C@H]6O)CC[C@@]5(C)[C@]4(C)CC[C@H]3C2(C)C)[C@H](O[C@@H]2O[C@H](CO)[C@@H](O)[C@H](O)[C@H]2O)[C@@H](O[C@@H]2O[C@H](CO)[C@H](O)[C@H](O)[C@H]2O)[C@@H]1O , viability at 500 molar ratio: > 80%

Reported viability at 500 molar ratio ( COC(=O)[C@H]1O[C@@H](O[C@H]2CC[C@]3(C)[C@H]4CC=C5[C@@H]6CC(C)(C)CC[C@]6(C(=O)O[C@@H]6O[C@H](CO)[C@@H](O)[C@H](O)[C@H]6O)CC[C@@]5(C)[C@]4(C)CC[C@H]3C2(C)C)[C@H](O[C@@H]2O[C@H](CO)[C@@H](O)[C@H](O)[C@H]2O)[C@@H](O[C@@H]2O[C@H](CO)[C@H](O)[C@H](O)[C@H]2O)[C@@H]1O ) = > 80%

====

tested on: PC-3; experiment: Cytotoxicity against human PC-3 cells after 48 hrs by SRB assay; type: functional; conditions: PC-3, 48 h
measured-attribute: GI50 (µM)
Give the value in µM but do not write µM after it.

PC-3 assay, compound CCCCOC(=O)[C@H]1O[C@@H](O[C@H]2CC[C@]3(C)[C@H]4CC=C5[C@@H]6CC(C)(C)CC[C@]6(C(=O)O[C@@H]6O[C@H](CO)[C@@H](O)[C@H](O)[C@H]6O)CC[C@@]5(C)[C@]4(C)CC[C@H]3C2(C)C)[C@H](O)[C@@H](O)[C@@H]1O , recorded GI50 = 1.26

Log: PC-3, compound CC1(C)CC[C@]2(C(=O)O)CC[C@]3(C)C(=CC[C@@H]4[C@@]5(C)CC[C@H](O[C@@H]6O[C@H](C(=O)O)[C@@H](O)[C@H](O[C@@H]7O[C@H](CO)[C@H](O)[C@H](O)[C@H]7O)[C@H]6O[C@@H]6O[C@H](CO)[C@@H](O)[C@H](O)[C@H]6O)C(C)(C)[C@@H]5CC[C@]43C)[C@@H]2C1 [CALENDULAGYCOSIDE B] , GI50 = 20.6

Per the reported PC-3 data, CCCCOC(=O)[C@H]1O[C@@H](O[C@H]2CC[C@]3(C)[C@H]4CC=C5[C@@H]6CC(C)(C)CC[C@]6(C(=O)O)CC[C@@]5(C)[C@]4(C)CC[C@H]3C2(C)C)[C@H](O[C@@H]2O[C@H](CO)[C@@H](O)[C@H](O)[C@H]2O)[C@@H](O[C@@H]2O[C@H](CO)[C@H](O)[C@H](O)[C@H]2O)[C@@H]1O has GI50 of 34.7

More entries:
For the compound COC(=O)[C@H]1O[C@@H](O[C@H]2CC[C@]3(C)[C@H]4CC=C5[C@@H]6CC(C)(C)CC[C@]6(C(=O)O)CC[C@@]5(C)[C@]4(C)CC[C@H]3C2(C)C)[C@H](O)[C@@H](O[C@@H]2O[C@H](CO)[C@H](O)[C@H](O)[C@H]2O)[C@@H]1O , the measured GI50 on PC-3 was 6.43
